This collection of values is drawn from patent US6274715A.

Tested on: STAPHYLOCOCCUS AUREUS CMX 642A
Test: In vitro antibacterial activity, MIC, BHI agar dilution
Format: cell-based
Conditions: S. aureus CMX 642A, unit assumed
Listed next: entries and their corresponding MIC.
Quantity Name: MIC (µg/mL)

INSERT INTO results (compound, recorded_result) VALUES
  ('CC[C@H]1OC(=O)[C@H](C)C(=O)[C@H](C)[C@@H](O[C@@H]2O[C@H](C)C[C@H](N(C)C)[C@H]2O)[C@](C)(OC)C[C@@H](C)C2=NC(COCc3ccc(Cl)cc3)C(COCc3ccc(Cl)cc3)N3C(=O)O[C@@]1(C)[C@H]3[C@H]2C (stereo partly drawn) [Example 147]', 1.56),
  ('CCC1OC(=O)C(C)C(=O)C(C)C(OC2OC(C)CC(N(C)C)C2O)C(C)(OC)CC(C)C2=NC(CN3CCCCC3)CN3C(=O)OC1(C)C3C2C (stereo not drawn) [Example 96]', 0.39),
  ('CC[C@H]1OC(=O)[C@H](C)C(=O)[C@H](C)[C@@H](O[C@@H]2O[C@H](C)C[C@H](N(C)C)[C@H]2O)[C@](C)(OC)C[C@@H](C)C2=NC3CN(CCc4ccc(NC(C)=O)cc4)CC3N3C(=O)O[C@@]1(C)[C@H]3[C@H]2C (stereo partly drawn) [Example 122]', 0.78),
  ('CC[C@H]1OC(=O)[C@H](C)C(=O)[C@H](C)[C@@H](O[C@@H]2O[C@H](C)C[C@H](N(C)C)[C@H]2O)[C@](C)(OC)C[C@@H](C)C2=N[C@H](COCc3ccc(C#N)cc3)CN3C(=O)O[C@@]1(C)[C@H]3[C@H]2C [Example 74]', 0.2),
  ('CCC1OC(=O)C(C)C(=O)C(C)C(OC2OC(C)CC(N(C)C)C2O)C(C)(OC)CC(C)C2=NCC(CCc3ccccc3)N3C(=O)OC1(C)C3C2C (stereo not drawn) [Example 35]', 0.78),
  ('CC[C@H]1OC(=O)[C@H](C)C(=O)[C@H](C)[C@@H](O[C@@H]2O[C@H](C)C[C@H](N(C)C)[C@H]2O)[C@](C)(OC)C[C@@H](C)C2=N[C@@H](Cc3ccccc3)CN3C(=O)O[C@@]1(C)[C@H]3[C@H]2C [Example 4]', 0.78),
  ('CC[C@H]1OC(=O)[C@H](C)C(=O)[C@H](C)[C@@H](O[C@@H]2O[C@H](C)C[C@H](N(C)C)[C@H]2O)[C@](C)(OC)C[C@@H](C)C2=N[C@@H](C)[C@H](C)N3C(=O)O[C@@]1(C)[C@H]3[C@H]2C [Example 11]', 0.39),
  ('CC[C@H]1OC(=O)[C@H](C)C(=O)[C@H](C)[C@@H](O[C@@H]2O[C@H](C)C[C@H](N(C)C)[C@H]2O)[C@](C)(OC)C[C@@H](C)C2=N[C@H](CN(C)Cc3ccccc3)CN3C(=O)O[C@@]1(C)[C@H]3[C@H]2C [Example 58]', 0.78),
  ('CC[C@H]1OC(=O)[C@H](C)C(=O)[C@H](C)[C@@H](O[C@@H]2O[C@H](C)C[C@H](N(C)C)[C@H]2O)[C@](C)(OC)C[C@@H](C)C2=N[C@@H]3CNC[C@@H]3N3C(=O)O[C@@]1(C)[C@H]3[C@H]2C [Example 19]', 0.39);

* * *

Tested on: STAPHYLOCOCCUS AUREUS A5177
Assay: In vitro antibacterial activity, MIC, BHI agar dilution
Format: cell-based
Conditions: S. aureus A5177, unit assumed
Quantity Name: MIC (µg/mL)

INSERT INTO results (compound, quantity_name, readout_unit, recorded_result) VALUES
  ('CC[C@H]1OC(=O)[C@H](C)C(=O)[C@H](C)[C@@H](O[C@@H]2O[C@H](C)C[C@H](N(C)C)[C@H]2O)[C@](C)(OC)C[C@@H](C)C2=N[C@H](COCc3ccnc4ccccc34)CN3C(=O)O[C@@]1(C)[C@H]3[C@H]2C', 'MIC', 'µg/mL', 0.2),
  ('CCC1OC(=O)C(C)C(=O)C(C)C(OC2OC(C)CC(N(C)C)C2O)C(C)(OC)CC(C)C2=NCC(CCc3ccccc3)N3C(=O)OC1(C)C3C2C (stereo not drawn)', 'MIC', 'µg/mL', 0.39),
  ('CC[C@H]1OC(=O)[C@H](C)C(=O)[C@H](C)[C@@H](O[C@@H]2O[C@H](C)C[C@H](N(C)C)[C@H]2O)[C@](C)(OC)C[C@@H](C)C2=NCC(CN(C)Cc3ccccc3)N3C(=O)O[C@@]1(C)[C@H]3[C@H]2C (stereo partly drawn)', 'MIC', 'µg/mL', 0.39);

* * *

Tested on: STAPHYLOCOCCUS EPIDERMIDIS 3519
Assay type: cell-based
Conditions: S. epidermidis 3519; BHI agar; unit assumed
Quantity Name: MIC

INSERT INTO measurements (molecule, target_under_test, recorded_result) VALUES
  ('CC[C@H]1OC(=O)[C@H](C)C(=O)[C@H](C)[C@@H](O[C@@H]2O[C@H](C)C[C@H](N(C)C)[C@H]2O)[C@](C)(OC)C[C@@H](C)C2=N[C@H](COCc3cccnc3)CN3C(=O)O[C@@]1(C)[C@H]3[C@H]2C', 'STAPHYLOCOCCUS EPIDERMIDIS 3519', '0.39 µg/mL'),
  ('CC[C@H]1OC(=O)[C@H](C)C(=O)[C@H](C)[C@@H](O[C@@H]2O[C@H](C)C[C@H](N(C)C)[C@H]2O)[C@](C)(OC)C[C@@H](C)C2=N[C@H](COCc3ccc(OC)cc3)CN3C(=O)O[C@@]1(C)[C@H]3[C@H]2C', 'STAPHYLOCOCCUS EPIDERMIDIS 3519', '0.39 µg/mL'),
  ('CC[C@H]1OC(=O)[C@H](C)C(=O)[C@H](C)[C@@H](O[C@@H]2O[C@H](C)C[C@H](N(C)C)[C@H]2O)[C@](C)(OC)C[C@@H](C)C2=N[C@@H]3COC[C@@H]3N3C(=O)O[C@@]1(C)[C@H]3[C@H]2C', 'STAPHYLOCOCCUS EPIDERMIDIS 3519', '0.78 µg/mL'),
  ('CC[C@H]1OC(=O)[C@H](C)C(=O)[C@H](C)[C@@H](O[C@@H]2O[C@H](C)C[C@H](N(C)C)[C@H]2O)[C@](C)(OC)C[C@@H](C)C2=NC(COCc3ccc(Cl)cc3)C(COCc3ccc(Cl)cc3)N3C(=O)O[C@@]1(C)[C@H]3[C@H]2C (stereo partly shown)', 'STAPHYLOCOCCUS EPIDERMIDIS 3519', '1.56 µg/mL'),
  ('CC[C@H]1OC(=O)[C@H](C)C(=O)[C@H](C)[C@@H](O[C@@H]2O[C@H](C)C[C@H](N(C)C)[C@H]2O)[C@](C)(OC)C[C@@H](C)C2=N[C@@H]3CN(C(=O)OCc4ccccc4)C[C@@H]3N3C(=O)O[C@@]1(C)[C@H]3[C@H]2C', 'STAPHYLOCOCCUS EPIDERMIDIS 3519', '0.78 µg/mL'),
  ('CC[C@H]1OC(=O)[C@H](C)C(=O)[C@H](C)[C@@H](O[C@@H]2O[C@H](C)C[C@H](N(C)C)[C@H]2O)[C@](C)(OC)C[C@@H](C)C2=N[C@@H](COCc3ccccc3)CN3C(=O)O[C@@]1(C)[C@H]3[C@H]2C', 'STAPHYLOCOCCUS EPIDERMIDIS 3519', '0.39 µg/mL'),
  ('CC[C@H]1OC(=O)[C@H](C)C(=O)[C@H](C)[C@@H](O[C@@H]2O[C@H](C)C[C@H](N(C)C)[C@H]2O)[C@](C)(OC)C[C@@H](C)C2=NC[C@H](COCc3cccc(F)c3)N3C(=O)O[C@@]1(C)[C@H]3[C@H]2C', 'STAPHYLOCOCCUS EPIDERMIDIS 3519', '0.2 µg/mL'),
  ('CC[C@H]1OC(=O)[C@H](C)C(=O)[C@H](C)[C@@H](O[C@@H]2O[C@H](C)C[C@H](N(C)C)[C@H]2O)[C@](C)(OC)C[C@@H](C)C2=NC[C@H](Cc3cscn3)N3C(=O)O[C@@]1(C)[C@H]3[C@H]2C', 'STAPHYLOCOCCUS EPIDERMIDIS 3519', '0.2 µg/mL'),
  ('CC[C@H]1OC(=O)[C@H](C)C(=O)[C@H](C)[C@@H](O[C@@H]2O[C@H](C)C[C@H](N(C)C)[C@H]2O)[C@](C)(OC)C[C@@H](C)C2=NCC(COC(=O)c3ccc(Cl)cc3)N3C(=O)O[C@@]1(C)[C@H]3[C@H]2C (stereo partly shown)', 'STAPHYLOCOCCUS EPIDERMIDIS 3519', '0.1 µg/mL'),
  ('CC[C@H]1OC(=O)[C@H](C)C(=O)[C@H](C)[C@@H](O[C@@H]2O[C@H](C)C[C@H](N(C)C)[C@H]2O)[C@](C)(OC)C[C@@H](C)C2=NCC(COC(=O)c3ccccc3)N3C(=O)O[C@@]1(C)[C@H]3[C@H]2C (stereo partly shown)', 'STAPHYLOCOCCUS EPIDERMIDIS 3519', '0.1 µg/mL'),
  ('CC[C@H]1OC(=O)[C@H](C)C(=O)[C@H](C)[C@@H](O[C@@H]2O[C@H](C)C[C@H](N(C)C)[C@H]2O)[C@](C)(OC)C[C@@H](C)C2=N[C@H](COCc3ccccn3)CN3C(=O)O[C@@]1(C)[C@H]3[C@H]2C', 'STAPHYLOCOCCUS EPIDERMIDIS 3519', '0.39 µg/mL'),
  ('CC[C@H]1OC(=O)[C@H](C)C(=O)[C@H](C)[C@@H](O[C@@H]2O[C@H](C)C[C@H](N(C)C)[C@H]2O)[C@](C)(OC)C[C@@H](C)C2=NC(COCc3ccccc3)C(COCc3ccccc3)N3C(=O)O[C@@]1(C)[C@H]3[C@H]2C (stereo partly shown)', 'STAPHYLOCOCCUS EPIDERMIDIS 3519', '0.39 µg/mL'),
  ('CC[C@H]1OC(=O)[C@H](C)C(=O)[C@H](C)[C@@H](O[C@@H]2O[C@H](C)C[C@H](N(C)C)[C@H]2O)[C@](C)(OC)C[C@@H](C)C2=N[C@@H](C)[C@H](C)N3C(=O)O[C@@]1(C)[C@H]3[C@H]2C', 'STAPHYLOCOCCUS EPIDERMIDIS 3519', '0.39 µg/mL'),
  ('CC[C@H]1OC(=O)[C@H](C)C(=O)[C@H](C)[C@@H](O[C@@H]2O[C@H](C)C[C@H](N(C)C)[C@H]2O)[C@](C)(OC)C[C@@H](C)C2=NC[C@H](Cc3ccc(O)cc3)N3C(=O)O[C@@]1(C)[C@H]3[C@H]2C', 'STAPHYLOCOCCUS EPIDERMIDIS 3519', '0.39 µg/mL'),
  ('CC[C@H]1OC(=O)[C@H](C)C(=O)[C@H](C)[C@@H](O[C@@H]2O[C@H](C)C[C@H](N(C)C)[C@H]2O)[C@](C)(OC)C[C@@H](C)C2=NC3CCCCC3N3C(=O)O[C@@]1(C)[C@H]3[C@H]2C (stereo partly shown)', 'STAPHYLOCOCCUS EPIDERMIDIS 3519', '0.2 µg/mL'),
  ('CC[C@H]1OC(=O)[C@H](C)C(=O)[C@H](C)[C@@H](O[C@@H]2O[C@H](C)C[C@H](N(C)C)[C@H]2O)[C@](C)(OC)C[C@@H](C)C2=N[C@H](COCc3ccc(F)cc3)CN3C(=O)O[C@@]1(C)[C@H]3[C@H]2C', 'STAPHYLOCOCCUS EPIDERMIDIS 3519', '0.1 µg/mL');
